Test system: UACC-257
Assay: Growth inhibition of human UACC257 cells assessed as cell growth at 10 uM by sulforhodamine B assay
Format: functional
Settings: read-out: Activity
OBSERVATION TYPE: growth at 10 µM (%)
Write down the numeric answer in % and omit the unit.

[ask] Give the reported growth at 10 µM for C/C=C(/C)C(=O)O[C@@H]1CC(C)(C)C[C@H]2C3=CC[C@@H]4[C@@]5(C)CC[C@H](O)C(C)(C)[C@@H]5CC[C@@]4(C)[C@]3(C)CC[C@@]12C(=O)O (system: UACC-257).
[reply] 60.6

[ask] Give the reported growth at 10 µM for COc1cc(/C=C2\C[C@]3(C)[C@H]4CC=C5[C@@H]6CC(C)(C)C[C@@H](O)[C@]6(C(=O)O)CC[C@@]5(C)[C@]4(C)CC[C@H]3C(C)(C)C2=O)ccc1O (system: UACC-257).
[reply] 91.4

[ask] Give the reported growth at 10 µM for CC(C)=CC(=O)O[C@@H]1CC(C)(C)C[C@H]2C3=CC[C@@H]4[C@@]5(C)CC[C@H](O)C(C)(C)[C@@H]5CC[C@@]4(C)[C@]3(C)CC[C@@]12C(=O)O (system: UACC-257).
[reply] 92.7

[ask] Give the reported growth at 10 µM for C/C=C(/C)C(=O)O[C@@H]1CC(C)(C)C[C@H]2C3=CC[C@@H]4[C@@]5(C)CCC(=O)C(C)(C)[C@@H]5CC[C@@]4(C)[C@]3(C)CC[C@@]12C(=O)O (system: UACC-257).
[reply] 70

[ask] Give the reported growth at 10 µM for CC1(C)C[C@@H](O)[C@]2(C(=O)O)CC[C@]3(C)C(=CC[C@@H]4[C@@]5(C)CC[C@H](O)C(C)(C)[C@@H]5CC[C@]43C)[C@@H]2C1 (system: UACC-257).
[reply] 107
